# Tested on: cells
reported_property: 5% Toxicity microM (µM)

compound	value_modifier	numeric_value
C/C(CCc1cn(C[C@H]2O[C@@H](O[C@H]3C(O[C@H]4OC(CN)C(O)[C@H](O)C4N)C(N)C[C@@H](N)C3O)[C@@H](O)C2O[C@H]2O[C@@H](CN)C(O)C(O)C2N)nn1)=C(/C)CCc1cn(C[C@H]2O[C@@H](O[C@H]3C(O[C@H]4OC(CN)C(O)[C@H](O)C4N)C(N)C[C@@H](N)C3O)[C@@H](O)C2O[C@H]2O[C@@H](CN)C(O)C(O)C2N)nn1 (stereo partly drawn) [DPA 55]	=	8
CN1CCN(c2ccc3nc(-c4ccc(OCCn5cc(-c6ccc(-c7cn(C[C@H]8OC(OC9C(O)[C@H](N)CC(N)[C@H]9O[C@H]9OC(CN)[C@@H](O)C(O)C9N)C(O)C8O[C@H]8OC(CN)[C@@H](O)C(O)C8N)nn7)cc6)nn5)cc4)[nH]c3c2)CC1 (stereo partly drawn) [DPA118]	>	184
CN1CCN(c2ccc3nc(-c4ccc(OCc5cn(CCCCCCCCn6cc(CCCCc7cn(C[C@H]8OC(OC9C(O)[C@H](N)CC(N)[C@H]9O[C@H]9OC(CN)[C@@H](O)C(O)C9N)C(O)C8O[C@H]8OC(CN)[C@@H](O)C(O)C8N)nn7)nn6)nn5)cc4)[nH]c3c2)CC1 (stereo partly drawn) [DPA116]	=	83

###

# Tested on: HIVNL4-3 in MT-2 cells
# test_summary: Release of reverse transcriptase into the culture supernatant
# Assay type: cell-based, HIV
# condition_context: Day 6; mean of triplicate infections; virus control 1,078,741
Quick reference for Release of reverse transcriptase into the culture supernatant, Day 6 among some molecules
reported_property: Release of reverse transcriptase into the culture supernatant, Day 6

molecule	result
C/C(CCc1cn(C[C@H]2O[C@@H](O[C@H]3C(O[C@H]4OC(CN)C(O)[C@H](O)C4N)C(N)C[C@@H](N)C3O)[C@@H](O)C2O[C@H]2O[C@@H](CN)C(O)C(O)C2N)nn1)=C(/C)CCc1cn(C[C@H]2O[C@@H](O[C@H]3C(O[C@H]4OC(CN)C(O)[C@H](O)C4N)C(N)C[C@@H](N)C3O)[C@@H](O)C2O[C@H]2O[C@@H](CN)C(O)C(O)C2N)nn1 (stereo partly shown) [DPA 55]	305,277 cpm/ml
NCC1O[C@H](OC2C(N)C[C@@H](N)C(O)[C@H]2O[C@@H]2O[C@H](Cn3cc(-c4ccc(-c5cn(C[C@H]6O[C@@H](O[C@H]7C(O[C@H]8OC(CN)C(O)[C@H](O)C8N)C(N)C[C@@H](N)C7O)[C@@H](O)C6O[C@H]6O[C@@H](CN)C(O)C(O)C6N)nn5)cc4)nn3)C(O[C@H]3O[C@@H](CN)C(O)C(O)C3N)[C@@H]2O)C(N)[C@@H](O)C1O (stereo partly shown) [DPA 53]	221,445 cpm/ml
NCC1O[C@H](OC2C(N)C[C@@H](N)C(O)[C@H]2O[C@@H]2O[C@H](Cn3cc(CCCCCCc4cn(C[C@H]5O[C@@H](O[C@H]6C(O[C@H]7OC(CN)C(O)[C@H](O)C7N)C(N)C[C@@H](N)C6O)[C@@H](O)C5O[C@H]5O[C@@H](CN)C(O)C(O)C5N)nn4)nn3)C(O[C@H]3O[C@@H](CN)C(O)C(O)C3N)[C@@H]2O)C(N)[C@@H](O)C1O (stereo partly shown) [DPA 56]	412,475 cpm/ml
CN1CCN(c2ccc3nc(-c4ccc(OCCn5cc(CCCCc6cn(C[C@H]7OC(OC8C(O)[C@H](N)CC(N)[C@H]8O[C@H]8OC(CN)[C@@H](O)C(O)C8N)C(O)C7O[C@H]7OC(CN)[C@@H](O)C(O)C7N)nn6)nn5)cc4)[nH]c3c2)CC1 (stereo partly shown) [DPA121]	880,573 cpm/ml
CN1CCN(c2ccc3nc(-c4ccc(OCCn5cc(COCc6cn(C[C@H]7OC(OC8C(O)[C@H](N)CC(N)[C@H]8O[C@H]8OC(CN)[C@@H](O)C(O)C8N)C(O)C7O[C@H]7OC(CN)[C@@H](O)C(O)C7N)nn6)nn5)cc4)[nH]c3c2)CC1 (stereo partly shown) [DPA119]	399,421 cpm/ml
NCC1O[C@H](OC2C(N)C[C@@H](N)C(O)[C@H]2O[C@@H]2O[C@H](Cn3cc(CCCc4cn(C[C@H]5O[C@@H](O[C@H]6C(O[C@H]7OC(CN)C(O)[C@H](O)C7N)C(N)C[C@@H](N)C6O)[C@@H](O)C5O[C@H]5O[C@@H](CN)C(O)C(O)C5N)nn4)nn3)C(O[C@H]3O[C@@H](CN)C(O)C(O)C3N)[C@@H]2O)C(N)[C@@H](O)C1O (stereo partly shown) [DPA 52]	268,357 cpm/ml
NCC1O[C@H](OC2C(N)C[C@@H](N)C(O)[C@H]2O[C@@H]2O[C@H](Cn3cc(CCCCc4cn(C[C@H]5O[C@@H](O[C@H]6C(O[C@H]7OC(CN)C(O)[C@H](O)C7N)C(N)C[C@@H](N)C6O)[C@@H](O)C5O[C@H]5O[C@@H](CN)C(O)C(O)C5N)nn4)nn3)C(O[C@H]3O[C@@H](CN)C(O)C(O)C3N)[C@@H]2O)C(N)[C@@H](O)C1O (stereo partly shown) [DPA 54]	427,475 cpm/ml

###

# Tested on: HIVNL4-3 in MT-2 cells
# test_summary: HIV antigen synthesis in treated cells, immunofluorescence assay (IFA)
# Assay type: cell-based
# condition_context: Day 2; MT-2 cells; microM: DPA119 24, DPA52 25, DPA53 9, DPA54 17, DPA55 4, DPA56 8, DPA121 25; virus control 15%
Quick reference: percentage of cells positive for HIV antigens, Day 2 of the listed items.
reported_property: percentage of cells positive for HIV antigens, Day 2 (%)

molecule	numeric_value
NCC1O[C@H](OC2C(N)C[C@@H](N)C(O)[C@H]2O[C@@H]2O[C@H](Cn3cc(-c4ccc(-c5cn(C[C@H]6O[C@@H](O[C@H]7C(O[C@H]8OC(CN)C(O)[C@H](O)C8N)C(N)C[C@@H](N)C7O)[C@@H](O)C6O[C@H]6O[C@@H](CN)C(O)C(O)C6N)nn5)cc4)nn3)C(O[C@H]3O[C@@H](CN)C(O)C(O)C3N)[C@@H]2O)C(N)[C@@H](O)C1O (stereo partly drawn) [DPA 53]	2
NCC1O[C@H](OC2C(N)C[C@@H](N)C(O)[C@H]2O[C@@H]2O[C@H](Cn3cc(CCCc4cn(C[C@H]5O[C@@H](O[C@H]6C(O[C@H]7OC(CN)C(O)[C@H](O)C7N)C(N)C[C@@H](N)C6O)[C@@H](O)C5O[C@H]5O[C@@H](CN)C(O)C(O)C5N)nn4)nn3)C(O[C@H]3O[C@@H](CN)C(O)C(O)C3N)[C@@H]2O)C(N)[C@@H](O)C1O (stereo partly drawn) [DPA 52]	15

###

# tested_on: HIV-1 TAR RNA
# test_summary: HIV-1 TAR RNA competition FRET binding assay (Tat peptide probe)
# condition_context: 100 nM TAR RNA, 100 nM Tat peptide, 25° C., 60 min; Table 17
Reported values of IC50 for individual entries
reported_property: IC50

compound	reported_property	result
CN1CCN(c2ccc3nc(-c4ccc(OCCn5cc(COCc6cn(C[C@H]7OC(OC8C(O)[C@H](N)CC(N)[C@H]8O[C@H]8OC(CN)[C@@H](O)C(O)C8N)C(O)C7O[C@H]7OC(CN)[C@@H](O)C(O)C7N)nn6)nn5)cc4)[nH]c3c2)CC1 (stereo partly shown)	IC50	464 nM
CN1CCN(c2ccc3nc(-c4ccc(OCc5cn(CCn6cc(CCCCc7cn(C[C@H]8OC(OC9C(O)[C@H](N)CC(N)[C@H]9O[C@H]9OC(CN)[C@@H](O)C(O)C9N)C(O)C8O[C@H]8OC(CN)[C@@H](O)C(O)C8N)nn7)nn6)nn5)cc4)[nH]c3c2)CC1 (stereo partly shown)	IC50	61300 nM
CN1CCN(c2ccc3nc(-c4ccc(OCCn5cc(CCCCCCc6cn(C[C@H]7OC(OC8C(O)[C@H](N)CC(N)[C@H]8O[C@H]8OC(CN)[C@@H](O)C(O)C8N)C(O)C7O[C@H]7OC(CN)[C@@H](O)C(O)C7N)nn6)nn5)cc4)[nH]c3c2)CC1 (stereo partly shown)	IC50	825 nM
CN1CCN(c2ccc3nc(-c4ccc(OCCn5cc(CCCCc6cn(C[C@H]7OC(OC8C(O)[C@H](N)CC(N)[C@H]8O[C@H]8OC(CN)[C@@H](O)C(O)C8N)C(O)C7O[C@H]7OC(CN)[C@@H](O)C(O)C7N)nn6)nn5)cc4)[nH]c3c2)CC1 (stereo partly shown)	IC50	686 nM
